Items are presented alongside their recorded self-splicing fitness (ln).
Assay: self-splicing fitness, log relative to wild type (ln ratio); higher = more splicing; Tetrahymena group I intron in knt gene, E. coli kanamycin selection, DiMSum; sequences stand for … in CUCUCU…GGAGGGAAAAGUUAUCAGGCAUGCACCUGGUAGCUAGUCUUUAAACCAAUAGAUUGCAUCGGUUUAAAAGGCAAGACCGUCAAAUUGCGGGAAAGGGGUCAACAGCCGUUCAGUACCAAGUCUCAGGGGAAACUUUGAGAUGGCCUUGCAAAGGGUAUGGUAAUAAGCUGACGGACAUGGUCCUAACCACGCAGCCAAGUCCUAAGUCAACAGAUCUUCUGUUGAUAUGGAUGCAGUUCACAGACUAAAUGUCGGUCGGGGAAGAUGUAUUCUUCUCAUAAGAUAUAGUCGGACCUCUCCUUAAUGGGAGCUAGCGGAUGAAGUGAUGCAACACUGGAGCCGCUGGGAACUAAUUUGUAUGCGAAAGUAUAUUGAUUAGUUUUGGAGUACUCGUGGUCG;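 also: selection with 25 µg/mL kanamycin versus none on LB agar overnight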
Conditions: 30 °C

SEQUENCE CONTENT: CUCGAGCAAUAUUACGGUCC
self-splicing fitness (ln): -3

SEQUENCE CONTENT: AAAGAGCAAUAUUACGUCUA
self-splicing fitness (ln): -1.12

SEQUENCE CONTENT: GUUGAGCAAUAUUACGUAAG
self-splicing fitness (ln): -2.08

SEQUENCE CONTENT: GCGGAGCAAUAUUACGGGCU
self-splicing fitness (ln): -2.38

SEQUENCE CONTENT: CGCAAGCAAUAUUACGCUCG
self-splicing fitness (ln): -3.87

SEQUENCE CONTENT: CUAUAGCAAUAUUACGAGGU
self-splicing fitness (ln): -4.07

SEQUENCE CONTENT: AUCCAGCAAUAUUACGUUAC
self-splicing fitness (ln): -3.89

SEQUENCE CONTENT: CUUCAGCAAUAUUACGUUAC
self-splicing fitness (ln): -3.35

====

Items are presented alongside their recorded self-splicing fitness (ln).
Test: self-splicing fitness, log relative to wild type (ln ratio); higher = more splicing; Tetrahymena group I intron in knt gene, E. coli kanamycin selection, DiMSum; sequences stand for … in CUCUCU…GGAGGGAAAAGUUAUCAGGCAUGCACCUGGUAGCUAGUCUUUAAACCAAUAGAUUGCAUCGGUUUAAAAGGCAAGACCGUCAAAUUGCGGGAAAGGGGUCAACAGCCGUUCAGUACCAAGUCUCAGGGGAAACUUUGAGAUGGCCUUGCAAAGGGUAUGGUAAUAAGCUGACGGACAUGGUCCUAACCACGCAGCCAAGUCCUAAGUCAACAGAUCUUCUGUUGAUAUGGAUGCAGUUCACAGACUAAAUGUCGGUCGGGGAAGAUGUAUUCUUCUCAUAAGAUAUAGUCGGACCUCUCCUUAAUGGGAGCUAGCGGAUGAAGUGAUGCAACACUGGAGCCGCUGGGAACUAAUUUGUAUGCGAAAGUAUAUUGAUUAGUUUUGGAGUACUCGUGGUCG
Conditions: 37 °C

SEQUENCE CONTENT: GACCAGCAAUAUUACGACCU
self-splicing fitness (ln): -0.389

SEQUENCE CONTENT: CUUUAGCAAUAUUACGUCUA
self-splicing fitness (ln): -2.26

SEQUENCE CONTENT: UUGCAGCAAUAUUACGGCUC
self-splicing fitness (ln): -0.29

SEQUENCE CONTENT: CCCUAGCAAUAUUACGCUCU
self-splicing fitness (ln): -1.45

SEQUENCE CONTENT: ACUGAGCAAUAUUACGUUGU
self-splicing fitness (ln): -1.53

SEQUENCE CONTENT: GGGCAGCAAUAUUACGCUAG
self-splicing fitness (ln): -0.741

SEQUENCE CONTENT: ACCAAGCAAUAUUACGCUAU
self-splicing fitness (ln): -0.775

SEQUENCE CONTENT: GAUCAGCAAUAUUACGCACA
self-splicing fitness (ln): 0.404

SEQUENCE CONTENT: ACUCAGCAAUAUUACGUUGA
self-splicing fitness (ln): -0.607

SEQUENCE CONTENT: CGUCAGCAAUAUUACGCCUC
self-splicing fitness (ln): -3.1

SEQUENCE CONTENT: AUUCAGCAAUAUUACGUUCU
self-splicing fitness (ln): -0.163

SEQUENCE CONTENT: ACAGAGCAAUAUUACGGGCG
self-splicing fitness (ln): -1.25

SEQUENCE CONTENT: ACGCAGCAAUAUUACGACUC
self-splicing fitness (ln): 0.365

SEQUENCE CONTENT: UAAAAGCAAUAUUACGGAGA
self-splicing fitness (ln): -1.83

SEQUENCE CONTENT: AAAUAGCAAUAUUACGUAAU
self-splicing fitness (ln): -1.75

SEQUENCE CONTENT: CACCAGCAAUAUUACGCGCU
self-splicing fitness (ln): -2.59
